// pIC50 lookup, one value per entry
Target system: human M1 receptor (Homo sapiens, UniProt P11229)
Sequence (P11229 whole entry): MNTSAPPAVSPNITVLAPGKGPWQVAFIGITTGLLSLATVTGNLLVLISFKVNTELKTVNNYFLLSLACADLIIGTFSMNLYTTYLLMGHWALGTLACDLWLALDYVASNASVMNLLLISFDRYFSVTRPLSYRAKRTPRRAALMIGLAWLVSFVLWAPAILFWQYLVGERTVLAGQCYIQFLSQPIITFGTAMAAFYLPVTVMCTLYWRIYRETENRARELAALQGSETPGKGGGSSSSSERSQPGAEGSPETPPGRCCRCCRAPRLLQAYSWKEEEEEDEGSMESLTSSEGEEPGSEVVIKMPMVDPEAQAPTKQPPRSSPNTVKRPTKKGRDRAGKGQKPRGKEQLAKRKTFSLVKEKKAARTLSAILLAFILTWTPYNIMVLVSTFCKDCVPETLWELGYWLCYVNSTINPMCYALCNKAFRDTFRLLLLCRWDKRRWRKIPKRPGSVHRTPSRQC
Procedure text: In vitro functional assay of muscarinic acetylcholine receptor activity (aequorin calcium flux, antagonist mode vs EC80 acetylcholine), M1
Assay type: cell-based
Measurement context: CHO-K1 cells stably expressing human M1 receptor with Aequorin; decrease in EC80 acetylcholine response; read-out: M1 IC50
pIC50: −log10 of the molar value.

Some solved cases for reference:
Compound: Cc1cc(F)cnc1N1CCN(C(=O)CCCc2cccc3ncsc23)[C@@H](C)C1
Target system: human M1 receptor (Homo sapiens, UniProt P11229)
pIC50: > 7.00

Compound: O=C(CCS(=O)(=O)c1cccc2ncsc12)N1CCN(c2ccc(C(F)(F)F)cn2)CC1
Target system: human M1 receptor (Homo sapiens, UniProt P11229)
pIC50: > 7.00

Compound: N#Cc1ccc(N2C3CCC2CN(C(=O)CCNCc2cccc4ncccc24)C3)nc1
Target system: human M1 receptor (Homo sapiens, UniProt P11229)
pIC50: 5.00 to 6.00

Compound: N#Cc1ccc(C2CC3CCC(C2)N3C(=O)CCS(=O)(=O)c2cccc3ncsc23)nc1 (stereo not shown)
Target system: human M1 receptor (Homo sapiens, UniProt P11229)
pIC50: 5.00 to 6.00

Compound: Cn1cnc2cccc(S(=O)(=O)CCC(=O)N3CCN(c4ccc(C(F)(F)F)cn4)CC3)c21
Target system: human M1 receptor (Homo sapiens, UniProt P11229)
pIC50: > 7.00

Consider the compound C[C@H]1CN(c2c[nH]c(=O)cc2Cl)CCN1C(=O)CCS(=O)(=O)c1cccc2ncsc12 and give its recorded pIC50.
6.00 to 7.00

Using the record for O=C(CCNCc1cccc2ncnn12)N1CC2CCC(C1)N2c1ccc(-c2ccccc2)cn1 , state its measured pIC50.
5.00 to 6.00

Identify measured pIC50 corresponding to C[C@H]1CN(c2cc(F)c(F)c(F)c2)CCN1C(=O)CCS(=O)(=O)c1cccc2ncsc12
5.00 to 6.00

Tell me pIC50 reported for Cc1cc(F)cnc1N1CCN(C(=O)CCS(=O)(=O)c2cccc3ncsc23)[C@@H](C)C1
> 7.00

Name the recorded pIC50 of the compound listed here: Cc1cc(F)cnc1N1CCN(C(=O)CCS(=O)(=O)c2cccc3ncccc23)[C@@H](C)C1
6.00 to 7.00
